# target_or_test_system: Calcium-dependent protein kinase 1 (Plasmodium falciparum (isolate 3D7)) (UniProt P62344)
# Sequence (P62344 whole entry, looked up): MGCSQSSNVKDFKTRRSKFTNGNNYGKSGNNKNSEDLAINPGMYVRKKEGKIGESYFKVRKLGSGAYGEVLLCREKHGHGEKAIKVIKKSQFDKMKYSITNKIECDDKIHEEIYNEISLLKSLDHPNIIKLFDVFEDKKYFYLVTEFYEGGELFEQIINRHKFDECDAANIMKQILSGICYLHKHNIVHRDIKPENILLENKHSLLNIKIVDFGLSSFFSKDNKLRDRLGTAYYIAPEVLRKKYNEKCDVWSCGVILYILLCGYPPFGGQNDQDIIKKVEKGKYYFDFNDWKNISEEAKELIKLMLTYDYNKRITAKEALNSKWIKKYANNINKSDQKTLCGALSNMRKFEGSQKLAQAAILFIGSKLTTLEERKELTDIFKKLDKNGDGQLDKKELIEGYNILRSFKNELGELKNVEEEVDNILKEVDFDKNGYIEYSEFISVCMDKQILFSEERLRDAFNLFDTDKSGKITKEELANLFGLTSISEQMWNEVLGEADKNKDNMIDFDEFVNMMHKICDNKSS
# protocol: PfCDPK1 kinase inhibitors, biochemical, TCAMS library (AID 1159585);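 note: inhibitors leave more ATP so luminescence rises with inhibition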
# condition_context: recombinant PfCDPK1, Kinase-Glo ATP depletion luminescence
endpoint_name: pIC50
Quick note: pIC50 means taking -log10 of the concentration in moles per liter.

Recorded results for 3 compounds are shown here.
>>> readout_value("CC(C)(CNCc1ccc(Cl)c(Cl)c1)c1nc(-c2ccc(Cl)c(O)c2)c(-c2ccncc2)[nH]1")
6.27
>>> readout_value("CCn1c(-c2nonc2N)nc2c(-c3ccccc3)ncc(OCCCCNCCc3ncc[nH]3)c21")
7.03
>>> readout_value("CCn1c(-c2nonc2N)nc2c(-c3cccc(NC(=O)Nc4ccccc4OC)c3)ncc(OCCCN)c21")
7.49

Req: Any idea what pIC50 was measured for `CNC(=O)c1ccccc1Nc1nc(Nc2ccc(N3CCN(C)CC3)nc2)ncc1C` ?
Resp: 7.35

Req: Any idea what pIC50 was measured for `CN(C)Cc1ccc(-c2ccc3c(Nc4ccc(Oc5ccccn5)cc4)ccnc3c2)o1` ?
Resp: 6.29

Req: Any idea what pIC50 was measured for `CCn1c(-c2nonc2N)nc2c(-c3cccc(Cl)c3)ncc(OCCCNCc3cnc(C)nc3N)c21` ?
Resp: 6.57

Req: Any idea what pIC50 was measured for `CC(C)(CNC(=O)C1CCN(CCOCc2ccccc2)CC1)c1nc(-c2ccc(Cl)c(O)c2)c(-c2ccncc2)[nH]1` ?
Resp: 6.13

Req: Any idea what pIC50 was measured for `CC(C)(CNC(=O)C1CCN(Cc2ccoc2)CC1)c1nc(-c2ccc(Cl)c(O)c2)c(-c2ccncc2)[nH]1` ?
Resp: 6.37

Req: Any idea what pIC50 was measured for `O=C(Nc1cccc(-c2nn3ccccc3c2-c2ccnc(Nc3cccc(-c4cnco4)c3)n2)c1)C1CCCCC1` ?
Resp: 6.79

Req: Any idea what pIC50 was measured for `NCCCNc1nc(Nc2cccc(C(N)=O)c2)c2c(=O)[nH]ccc2n1` ?
Resp: 6.12

Req: Any idea what pIC50 was measured for `Cn1c(Nc2cc(C(C)(C)C)on2)nc2cc(Nc3ccnc(Nc4cccc(CS(C)(=O)=O)c4)n3)ccc21` ?
Resp: 6.94

Req: Any idea what pIC50 was measured for `O=C(NCCN1CCCCC1)c1ccc(Nc2nccc(Nc3ccc(Oc4ccccc4)cc3)n2)cc1` ?
Resp: 6.99

Req: Any idea what pIC50 was measured for `CN(C(=O)c1cc2c(-c3cncnc3)cccc2[nH]1)c1ccccc1` ?
Resp: 6.57

Req: Any idea what pIC50 was measured for `CC(=O)Nc1cccc(Nc2nccc(-c3c(-c4cccc(NC(=O)c5c(F)cccc5F)c4)nn4ncccc34)n2)c1` ?
Resp: 7.82

Req: Any idea what pIC50 was measured for `c1ccc(Oc2ccc(Nc3ccnc(Nc4ccc5cn[nH]c5c4)n3)cc2)cc1` ?
Resp: 6.12

Reference source for all entries: PubChem BioAssay AID1159585
